The measured values listed here are drawn from the supplement of paper PMC9446081.

# Assay system: DNA primase (UniProt P0ABS7)
# Sequence (P0ABS7 whole entry): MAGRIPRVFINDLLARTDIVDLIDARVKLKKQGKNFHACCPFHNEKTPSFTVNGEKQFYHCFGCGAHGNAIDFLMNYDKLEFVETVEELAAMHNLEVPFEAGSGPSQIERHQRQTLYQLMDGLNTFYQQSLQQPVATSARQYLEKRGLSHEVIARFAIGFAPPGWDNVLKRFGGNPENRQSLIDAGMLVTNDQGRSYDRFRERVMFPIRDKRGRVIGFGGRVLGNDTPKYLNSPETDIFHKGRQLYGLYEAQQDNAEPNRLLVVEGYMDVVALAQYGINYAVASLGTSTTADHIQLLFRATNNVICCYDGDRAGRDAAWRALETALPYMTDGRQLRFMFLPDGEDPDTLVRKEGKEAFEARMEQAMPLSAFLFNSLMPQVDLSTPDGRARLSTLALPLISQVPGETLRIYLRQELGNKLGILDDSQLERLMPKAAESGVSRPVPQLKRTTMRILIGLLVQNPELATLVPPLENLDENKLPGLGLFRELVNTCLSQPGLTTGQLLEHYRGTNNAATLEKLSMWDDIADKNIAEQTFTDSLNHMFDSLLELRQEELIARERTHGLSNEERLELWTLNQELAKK
# Measurement description: relative enzymatic activity vs untreated control (fraction); higher = less inhibition
# Reported conditions: 100 µM; incubation time: 2 h at 37 C
Provide the recorded relative enzymatic activity for the entries that follow.
Lab note: jot down the number only; don't add units.

Query: # get_value(readout='relative enzymatic activity', item= `CO/N=C(\C(=O)N[C@@H]1C(=O)N2C(C(=O)O)=C(CSC(=O)c3ccco3)CS[C@H]12)c1csc(N)n1` )
Response: 0.533

Query: Repeat with `O=C1CN(/N=C/c2ccc([N+](=O)[O-])o2)C(=O)N1`
Response: 0.764

Query: Please do the same for Cc1nnc(SCC2=C(C(=O)[O-])N3C(=O)C(NC(=O)Cn4cnnn4)C3SC2)s1.[Na+] (stereo not drawn) as well.
Response: 0.707

---

# Assay system: MurC (UniProt C4ZRI6)
# Sequence (C4ZRI6 whole entry, looked up): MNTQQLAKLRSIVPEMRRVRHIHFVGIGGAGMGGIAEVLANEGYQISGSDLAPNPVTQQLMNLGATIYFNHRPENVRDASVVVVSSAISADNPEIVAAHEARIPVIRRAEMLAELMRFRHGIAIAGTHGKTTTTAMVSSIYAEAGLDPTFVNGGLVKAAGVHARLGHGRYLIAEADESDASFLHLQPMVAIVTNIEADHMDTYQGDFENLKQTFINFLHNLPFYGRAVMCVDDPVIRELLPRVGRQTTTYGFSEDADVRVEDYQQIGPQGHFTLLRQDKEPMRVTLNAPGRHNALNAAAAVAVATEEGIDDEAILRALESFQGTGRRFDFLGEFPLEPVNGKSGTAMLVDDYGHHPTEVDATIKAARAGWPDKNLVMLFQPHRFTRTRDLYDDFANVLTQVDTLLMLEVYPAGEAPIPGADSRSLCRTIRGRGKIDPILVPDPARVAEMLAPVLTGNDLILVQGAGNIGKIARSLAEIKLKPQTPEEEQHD
# Measurement description: relative enzymatic activity vs untreated control (fraction); higher = less inhibition
# Reported conditions: 100 µM; incubation time: 2 h at 37 C
For each of the molecules below, state its relative enzymatic activity.

Query: Give the measured relative enzymatic activity of `O=C1NCCN1c1ncc([N+](=O)[O-])s1` .
Response: 1.01

Query: Proceed to `COC(=O)N/N=C/c1c[n+]([O-])c2ccccc2[n+]1[O-]`
Response: 1

Query: # iterate: O=C([O-])CCC(=O)OCC(NC(=O)C(Cl)Cl)C(O)c1ccc([N+](=O)[O-])cc1.[Na+] (stereo not given)
Response: 1.01

Query: // query: `CN1CCN(c2c(F)cc3c(=O)c(C(=O)O)cn(CCF)c3c2F)CC1`
Response: 1.02

Query: And the next one, `CN(C)c1ccc(O)c2c1C[C@H]1C[C@H]3[C@H](N(C)C)C(=O)C(C(N)=O)=C(O)[C@@]3(O)C(=O)[C@H]1C2=O` ?
Response: 0.99
